- assay_explanation: Ratio of drug concentration in brain to plasma of aconitine-induced nociception in IEM transgenic FVB mouse model at EC50 pretreated orally for 2 hrs followed by aconitine administration measured for 30 mins post-aconitine dose
- Type: ADME
- test_settings: route po, read-out: BPR
measured_endpoint: Kp at 2.5 h

Record C[C@@H]1[C@@H](C(=O)O)[C@H](C(=O)c2cc(C3CC3)c(OCC3CCN(Cc4c(Cl)cccc4Cl)CC3)cc2F)C[C@@H]1F . Reported Kp at 2.5 h: ~0.12

###

- assay_explanation: Metabolic stability in human hepatocytes assessed as hepatic clearance
- Format: ADME, cell-based, Hepatocyte
measured_endpoint: CLhep predicted (mL/min/kg)
Write down the numeric answer in mL/min/kg and omit the unit.

C[C@@H]1[C@@H](C(=O)O)[C@H](C(=O)c2cc(C3CC3)c(OCC3CCN(Cc4c(Cl)cccc4Cl)CC3)cc2F)C[C@@H]1F has a reported CLhep predicted of 6.2

###

Each record here notes measured pKi.
- study_target: Sodium channel protein type 9 subunit alpha (Homo sapiens, UniProt Q15858)
- assay_explanation: Displacement of [3H]GX-545 from Nav1.7 VSD4 (unknown origin)
- Sequence (Q15858 whole entry): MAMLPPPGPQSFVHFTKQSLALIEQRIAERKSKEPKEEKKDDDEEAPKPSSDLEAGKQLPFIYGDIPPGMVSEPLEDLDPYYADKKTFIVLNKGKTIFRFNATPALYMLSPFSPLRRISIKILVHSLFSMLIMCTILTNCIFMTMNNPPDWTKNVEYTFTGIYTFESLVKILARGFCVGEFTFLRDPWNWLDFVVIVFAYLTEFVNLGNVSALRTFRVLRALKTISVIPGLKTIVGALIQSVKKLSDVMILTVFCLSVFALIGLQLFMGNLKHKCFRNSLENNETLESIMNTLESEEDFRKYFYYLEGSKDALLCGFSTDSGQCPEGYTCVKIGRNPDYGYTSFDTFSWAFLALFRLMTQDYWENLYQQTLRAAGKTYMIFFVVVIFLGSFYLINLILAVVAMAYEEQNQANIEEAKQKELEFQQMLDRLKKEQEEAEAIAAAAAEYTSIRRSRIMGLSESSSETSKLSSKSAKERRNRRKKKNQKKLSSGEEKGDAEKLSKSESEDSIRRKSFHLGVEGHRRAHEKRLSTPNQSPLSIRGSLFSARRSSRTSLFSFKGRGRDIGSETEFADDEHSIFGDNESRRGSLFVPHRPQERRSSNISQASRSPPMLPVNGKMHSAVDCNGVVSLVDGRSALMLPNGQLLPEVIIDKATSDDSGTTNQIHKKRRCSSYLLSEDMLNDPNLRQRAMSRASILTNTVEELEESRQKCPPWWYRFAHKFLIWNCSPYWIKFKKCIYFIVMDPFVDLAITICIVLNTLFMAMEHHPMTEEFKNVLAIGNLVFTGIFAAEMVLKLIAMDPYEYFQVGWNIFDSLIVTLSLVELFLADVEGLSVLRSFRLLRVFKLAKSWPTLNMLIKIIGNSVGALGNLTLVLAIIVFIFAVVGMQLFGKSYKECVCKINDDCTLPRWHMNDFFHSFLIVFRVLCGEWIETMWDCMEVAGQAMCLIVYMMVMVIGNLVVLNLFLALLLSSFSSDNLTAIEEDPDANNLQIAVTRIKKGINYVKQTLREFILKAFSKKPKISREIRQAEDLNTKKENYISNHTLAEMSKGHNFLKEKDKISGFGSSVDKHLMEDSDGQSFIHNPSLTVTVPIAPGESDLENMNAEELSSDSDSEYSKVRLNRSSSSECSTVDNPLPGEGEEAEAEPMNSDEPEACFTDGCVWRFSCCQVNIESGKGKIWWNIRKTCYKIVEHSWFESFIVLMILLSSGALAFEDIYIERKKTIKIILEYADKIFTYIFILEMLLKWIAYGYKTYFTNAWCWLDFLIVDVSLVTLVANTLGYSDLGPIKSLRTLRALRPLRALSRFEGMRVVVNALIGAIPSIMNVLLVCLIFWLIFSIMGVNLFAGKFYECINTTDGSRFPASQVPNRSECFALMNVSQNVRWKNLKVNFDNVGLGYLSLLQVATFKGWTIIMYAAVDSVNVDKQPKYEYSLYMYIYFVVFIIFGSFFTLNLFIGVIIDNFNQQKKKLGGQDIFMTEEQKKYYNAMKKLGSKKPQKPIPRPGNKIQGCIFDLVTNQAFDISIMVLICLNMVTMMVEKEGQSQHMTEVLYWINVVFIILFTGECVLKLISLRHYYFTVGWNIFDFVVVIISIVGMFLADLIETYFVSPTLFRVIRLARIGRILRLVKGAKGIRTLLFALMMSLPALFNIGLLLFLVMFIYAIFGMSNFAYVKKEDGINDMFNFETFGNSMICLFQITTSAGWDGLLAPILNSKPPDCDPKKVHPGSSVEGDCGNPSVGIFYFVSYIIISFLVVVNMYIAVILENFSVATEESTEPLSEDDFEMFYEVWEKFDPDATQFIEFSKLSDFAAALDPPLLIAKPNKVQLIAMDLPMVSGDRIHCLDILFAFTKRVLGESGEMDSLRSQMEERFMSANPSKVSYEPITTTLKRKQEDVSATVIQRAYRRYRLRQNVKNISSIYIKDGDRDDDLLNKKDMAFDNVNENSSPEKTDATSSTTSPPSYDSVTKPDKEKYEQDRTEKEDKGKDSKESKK
By convention, pKi is the negative base-10 log of a molar concentration.

A selection of reference data follows.
compound: C[C@@H]1[C@@H](C(=O)O)[C@H](C(=O)c2cc(C3CC3)c(OCC3CCN(Cc4c(Cl)cccc4Cl)CC3)cc2F)C[C@@H]1F
measured_endpoint: pKi
recorded_result: 8.31

compound: C[C@H]1C[C@@H](C(=O)O)N(C(=O)c2cc(C3CC3)c(OCC34CC5CC(CC(C5)C3)C4)cc2F)C1
measured_endpoint: pKi
recorded_result: 7.31

Per the record, O=C(O)[C@@H]1[C@H](O)CCN1C(=O)c1cc(C2CC2)c(OCC23CC4CC(CC(C4)C2)C3)cc1F has pKi of 6.80

Kindly note the recorded pKi for CC1(C)CCN(C(=O)c2cc(C3CC3)c(OCC34CC5CC(CC(C5)C3)C4)cc2F)[C@@H]1C(=O)O , which is 7.24

###

- assay_explanation: Plasma protein binding in mouse
- Assay type: ADME, cell-free
- test_settings: read-out: PPB
measured_endpoint: fraction unbound

Entry C[C@@H]1[C@@H](C(=O)O)[C@H](C(=O)c2cc(C3CC3)c(OCC3CCN(Cc4c(Cl)cccc4Cl)CC3)cc2F)C[C@@H]1F — recorded fraction unbound = 0.0001

###

- study_target: Sodium channel protein type 9 subunit alpha (Homo sapiens, UniProt Q15858)
- assay_explanation: Inhibition of human Nav1.7 by sodium flux assay
measured_endpoint: pIC50
Remember the convention: pIC50 equals -log10 of concentration in molar.

compound: O=C(O)[C@@H]1CCCN1C(=O)c1cc(C2CC2)c(OCC23CC4CC(CC(C4)C2)C3)cc1F
study_target: Sodium channel protein type 9 subunit alpha (Homo sapiens, UniProt Q15858)
pIC50: 6.74
--
compound: O=C(c1cc(C2CC2)c(OCC23CC4CC(CC(C4)C2)C3)cc1F)C1CCC[C@H]1C(=O)O (some centres undefined)
study_target: Sodium channel protein type 9 subunit alpha (Homo sapiens, UniProt Q15858)
pIC50: 6.60
--
compound: C[C@@H]1[C@@H](C(=O)O)[C@H](C(=O)c2cc(C3CC3)c(OCC3CCN(Cc4c(Cl)cccc4Cl)CC3)cc2F)C[C@@H]1F
study_target: Sodium channel protein type 9 subunit alpha (Homo sapiens, UniProt Q15858)
pIC50: 7.00

Tested system Sodium channel protein type 9 subunit alpha (Homo sapiens, UniProt Q15858); pIC50 recorded for C[C@@H]1[C@@H](C(=O)O)[C@H](C(=O)c2cc(C3CC3)c(OCC34CC5CC(CC(C5)C3)C4)cc2F)C[C@@H]1F was 6.80

###

- study_target: Sodium channel protein type 1 subunit alpha (Homo sapiens, UniProt P35498)
- assay_explanation: Inhibition of human Nav1.1 by patch clamp electrophysiology
measured_endpoint: pIC50
A value of pIC50 is the negative decimal logarithm of a concentration given in moles per litre.

Lab note: measured pIC50 of C[C@@H]1[C@@H](C(=O)O)[C@H](C(=O)c2cc(C3CC3)c(OCC3CCN(Cc4c(Cl)cccc4Cl)CC3)cc2F)C[C@@H]1F was 7.60

###

- assay_explanation: Half life in mouse at 1 mg/kg, iv
- Type: ADME, organism-based
- test_settings: in vivo
measured_endpoint: half-life (h)
All answers are understood in h, so give the number only.

Lab book: half-life of C[C@@H]1[C@@H](C(=O)O)[C@H](C(=O)c2cc(C3CC3)c(OCC3CCN(Cc4c(Cl)cccc4Cl)CC3)cc2F)C[C@@H]1F noted as 1.2

###

- assay_explanation: Metabolic stability in mouse hepatocytes assessed as hepatic clearance
- Format: ADME, cell-based, Hepatocyte
measured_endpoint: CLhep predicted (L/h/kg)
The figure you give is taken to be in L/h/kg; do not add the unit.

Reported CLhep predicted ( C[C@@H]1[C@@H](C(=O)O)[C@H](C(=O)c2cc(C3CC3)c(OCC3CCN(Cc4c(Cl)cccc4Cl)CC3)cc2F)C[C@@H]1F ) = 1.26

###

- study_target: Sodium channel protein type 9 subunit alpha (Homo sapiens)
- assay_explanation: Inhibition of human Nav1.7 assessed as fold shift in IC50 in presence of BSA by sodium flux assay
- Sequence (Q15858 whole entry, looked up): as the sequence (Q15858 whole entry) above
measured_endpoint: fold change (FC)

Example entries begin here.
compound: C[C@@H]1[C@@H](C(=O)O)N(C(=O)c2cc(C3CC3)c(OCC34CC5CC(CC(C5)C3)C4)cc2F)C[C@@H]1F
recorded_result: 1

compound: O=C(O)[C@@H]1CCCN1C(=O)c1cc(C2CC2)c(OCC23CC4CC(CC(C4)C2)C3)cc1F
recorded_result: 2.2

compound: C[C@@H]1[C@@H](C(=O)O)[C@H](C(=O)c2cc(C3CC3)c(OCC34CC5CC(CC(C5)C3)C4)cc2F)C[C@@H]1F
recorded_result: 1

Lab note: next compound to report on.
The compound O=C(c1cc(C2CC2)c(OCC23CC4CC(CC(C4)C2)C3)cc1F)C1CCC[C@H]1C(=O)O (some centres undefined) showed fold change (FC) equal to 1.5

###

- assay_explanation: Metabolic stability in human liver microsomes assessed as hepatic clearance
- Assay type: ADME, Microsome
Listing of recorded CLhep predicted by entry.
Quick reminder: number only, in mL/min/kg, skip the unit.

molecule: C[C@@H]1[C@@H](C(=O)O)N(C(=O)c2cc(C3CC3)c(OCC34CC5CC(CC(C5)C3)C4)cc2F)C[C@@H]1F
value_units: mL/min/kg
CLhep predicted: 13

From here, focus on the item given below.
Sure, the documented CLhep predicted for C[C@@H]1[C@@H](C(=O)O)[C@H](C(=O)c2cc(C3CC3)c(OCC3CCN(Cc4c(Cl)cccc4Cl)CC3)cc2F)C[C@@H]1F is 11

###

- study_target: Cytochrome P450 2C19 (Homo sapiens)
- Sequence (P33261 whole entry): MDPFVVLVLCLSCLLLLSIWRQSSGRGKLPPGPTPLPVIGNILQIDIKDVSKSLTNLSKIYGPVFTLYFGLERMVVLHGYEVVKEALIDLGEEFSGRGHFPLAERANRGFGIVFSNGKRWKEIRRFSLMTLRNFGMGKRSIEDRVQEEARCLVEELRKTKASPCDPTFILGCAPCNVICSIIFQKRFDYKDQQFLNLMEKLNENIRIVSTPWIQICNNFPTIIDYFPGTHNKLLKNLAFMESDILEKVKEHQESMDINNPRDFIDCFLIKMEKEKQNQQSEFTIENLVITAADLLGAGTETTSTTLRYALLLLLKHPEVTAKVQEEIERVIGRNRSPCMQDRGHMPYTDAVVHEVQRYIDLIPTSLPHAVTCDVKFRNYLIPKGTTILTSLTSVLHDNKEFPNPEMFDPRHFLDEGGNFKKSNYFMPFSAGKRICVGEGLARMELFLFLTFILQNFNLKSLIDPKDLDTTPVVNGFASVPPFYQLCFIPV
pIC50: −log10 of the molar value.
measured_endpoint: pIC50

Here C[C@@H]1[C@@H](C(=O)O)[C@H](C(=O)c2cc(C3CC3)c(OCC3CCN(Cc4c(Cl)cccc4Cl)CC3)cc2F)C[C@@H]1F was tested on Cytochrome P450 2C19 (Homo sapiens), and its pIC50 came to < 5.00

###

- assay_explanation: Volume of distribution at steady state in mouse at 1 mg/kg, iv
- Type: ADME, organism-based
- test_settings: in vivo, read-out: Vdss
measured_endpoint: Vd (L/kg)
Answer with a number only, understood to be in L/kg.

Input C[C@@H]1[C@@H](C(=O)O)[C@H](C(=O)c2cc(C3CC3)c(OCC3CCN(Cc4c(Cl)cccc4Cl)CC3)cc2F)C[C@@H]1F . Output Vd: 0.94

###

- study_target: Sodium channel protein type 5 subunit alpha (Homo sapiens, UniProt Q14524)
- Sequence (Q14524 whole entry): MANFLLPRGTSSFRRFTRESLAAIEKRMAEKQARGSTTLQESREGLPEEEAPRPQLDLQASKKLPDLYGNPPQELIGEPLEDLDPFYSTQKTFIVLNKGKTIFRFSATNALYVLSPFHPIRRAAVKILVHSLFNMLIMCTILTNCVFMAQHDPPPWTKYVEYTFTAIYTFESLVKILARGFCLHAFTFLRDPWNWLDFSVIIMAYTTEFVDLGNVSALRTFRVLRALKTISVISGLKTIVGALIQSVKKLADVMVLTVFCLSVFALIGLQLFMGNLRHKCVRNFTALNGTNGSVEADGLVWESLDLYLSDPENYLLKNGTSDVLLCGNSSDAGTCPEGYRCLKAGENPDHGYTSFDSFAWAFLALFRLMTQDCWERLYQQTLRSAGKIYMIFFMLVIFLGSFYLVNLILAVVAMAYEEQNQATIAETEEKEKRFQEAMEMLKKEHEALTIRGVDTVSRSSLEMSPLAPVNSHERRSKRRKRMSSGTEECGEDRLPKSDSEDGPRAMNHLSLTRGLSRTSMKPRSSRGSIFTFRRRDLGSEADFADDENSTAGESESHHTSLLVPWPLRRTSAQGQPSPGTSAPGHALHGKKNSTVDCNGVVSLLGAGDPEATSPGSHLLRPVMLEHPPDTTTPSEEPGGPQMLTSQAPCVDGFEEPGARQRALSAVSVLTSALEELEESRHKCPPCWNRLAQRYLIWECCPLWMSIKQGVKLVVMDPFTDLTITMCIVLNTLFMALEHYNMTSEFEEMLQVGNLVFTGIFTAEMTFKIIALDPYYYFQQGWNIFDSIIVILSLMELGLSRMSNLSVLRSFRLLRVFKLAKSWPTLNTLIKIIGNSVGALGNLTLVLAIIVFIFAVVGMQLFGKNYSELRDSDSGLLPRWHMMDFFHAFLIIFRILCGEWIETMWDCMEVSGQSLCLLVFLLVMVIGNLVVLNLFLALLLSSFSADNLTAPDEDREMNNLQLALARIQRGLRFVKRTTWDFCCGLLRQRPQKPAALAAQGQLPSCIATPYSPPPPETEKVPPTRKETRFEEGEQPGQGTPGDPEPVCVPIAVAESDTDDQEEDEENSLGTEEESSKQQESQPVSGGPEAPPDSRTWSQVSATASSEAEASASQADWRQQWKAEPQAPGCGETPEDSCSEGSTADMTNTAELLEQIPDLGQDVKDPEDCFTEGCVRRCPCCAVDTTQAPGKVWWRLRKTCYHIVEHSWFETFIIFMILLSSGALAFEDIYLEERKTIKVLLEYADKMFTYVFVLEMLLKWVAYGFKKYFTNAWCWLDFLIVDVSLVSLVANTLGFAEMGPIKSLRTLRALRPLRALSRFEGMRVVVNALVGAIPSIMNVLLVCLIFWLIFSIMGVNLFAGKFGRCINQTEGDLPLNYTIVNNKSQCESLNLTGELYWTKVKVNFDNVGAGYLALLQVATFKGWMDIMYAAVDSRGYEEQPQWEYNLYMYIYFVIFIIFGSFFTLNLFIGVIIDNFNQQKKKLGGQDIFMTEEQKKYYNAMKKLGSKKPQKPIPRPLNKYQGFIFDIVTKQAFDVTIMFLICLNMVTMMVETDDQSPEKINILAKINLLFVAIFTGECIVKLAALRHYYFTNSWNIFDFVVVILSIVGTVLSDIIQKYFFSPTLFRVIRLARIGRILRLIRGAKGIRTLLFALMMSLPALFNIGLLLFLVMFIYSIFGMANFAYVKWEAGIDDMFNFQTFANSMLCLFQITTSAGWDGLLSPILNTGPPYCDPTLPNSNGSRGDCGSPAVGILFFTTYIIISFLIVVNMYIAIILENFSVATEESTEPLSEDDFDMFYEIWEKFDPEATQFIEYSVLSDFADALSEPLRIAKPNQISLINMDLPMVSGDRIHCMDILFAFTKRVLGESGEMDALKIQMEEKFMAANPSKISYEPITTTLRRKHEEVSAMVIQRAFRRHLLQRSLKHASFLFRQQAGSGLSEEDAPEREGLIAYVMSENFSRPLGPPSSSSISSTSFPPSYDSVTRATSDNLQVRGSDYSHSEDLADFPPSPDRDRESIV
- assay_explanation: Inhibition of human Nav1.5 by patch clamp electrophysiology
measured_endpoint: IC50 (µM)
Report as a plain number; the unit µM is understood.

Example cases with answers are listed next.
compound: C[C@@H]1[C@@H](C(=O)O)[C@H](C(=O)c2cc(C3CC3)c(OCC34CC5CC(CC(C5)C3)C4)cc2F)C[C@@H]1F
value_units: µM
recorded_result: 6

compound: C[C@@H]1[C@@H](C(=O)O)N(C(=O)c2cc(C3CC3)c(OCC34CC5CC(CC(C5)C3)C4)cc2F)C[C@@H]1F
value_units: µM
recorded_result: 5.8

compound: O=C(c1cc(C2CC2)c(OCC23CC4CC(CC(C4)C2)C3)cc1F)C1CCC[C@H]1C(=O)O (some centres undefined)
value_units: µM
recorded_result: 2.6

// below: IC50 requested for another compound
C[C@@H]1[C@@H](C(=O)O)[C@H](C(=O)c2cc(C3CC3)c(OCC3CCN(Cc4c(Cl)cccc4Cl)CC3)cc2F)C[C@@H]1F yielded IC50 of 5.9

###

- assay_explanation: Drug concentration in plasma of aconitine-induced nociception in IEM transgenic FVB mouse model at 100 mg/kg, po pretreated for 2 hrs followed by aconitine administration measured for 30 mins post-aconitine dose
- Assay type: ADME, organism-based
measured_endpoint: concentration at 2.5 h (µM)
Numeric answer only, unit µM assumed.

concentration at 2.5 h for C[C@@H]1[C@@H](C(=O)O)[C@H](C(=O)c2cc(C3CC3)c(OCC3CCN(Cc4c(Cl)cccc4Cl)CC3)cc2F)C[C@@H]1F is 50.9
